- measurement-target: Human β2 adrenoceptor (Homo sapiens)
- Construct: purchased Perkin Elmer
- Sequence (P07550 whole entry): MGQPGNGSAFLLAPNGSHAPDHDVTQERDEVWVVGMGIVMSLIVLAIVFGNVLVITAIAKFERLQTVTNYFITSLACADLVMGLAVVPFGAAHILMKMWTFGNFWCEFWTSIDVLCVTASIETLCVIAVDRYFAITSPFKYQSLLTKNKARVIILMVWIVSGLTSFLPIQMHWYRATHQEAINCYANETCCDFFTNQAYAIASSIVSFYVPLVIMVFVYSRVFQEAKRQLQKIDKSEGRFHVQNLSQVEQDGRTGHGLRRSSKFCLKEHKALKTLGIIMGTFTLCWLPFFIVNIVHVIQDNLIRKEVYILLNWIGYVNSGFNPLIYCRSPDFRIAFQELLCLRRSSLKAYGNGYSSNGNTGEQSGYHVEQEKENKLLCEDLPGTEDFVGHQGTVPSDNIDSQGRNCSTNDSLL
- test-details: β2 adrenoceptor radioligand binding assay
pIC50: −log10 of the molar value.
measurement-name: pIC50

Ask | Record `COc1cc(C(=O)NCc2ccnc(-c3cccc([C@](O)(C(=O)OCC4CCN(Cc5ccccc5)CC4)c4ccccc4)c3)n2)ccc1CNC[C@H](O)c1ccc(O)c2[nH]c(=O)ccc12` : what is its pIC50 with Human β2 adrenoceptor (Homo sapiens)?
Reply | > 9.52

Ask | Record `CCOc1cc(C(=O)NCc2ccc(-c3cccc([C@](O)(C(=O)OCC4CCN(Cc5ccccc5)CC4)c4ccccc4)c3)s2)ccc1CNC[C@H](O)c1ccc(O)c2[nH]c(=O)ccc12` : what is its pIC50 with Human β2 adrenoceptor (Homo sapiens)?
Reply | 8.52 to 9.52

Ask | Record `COc1cc(C(=O)N2CCC(c3cccc([C@](O)(C(=O)OCC4CCN(Cc5ccccc5)CC4)c4ccccc4)c3)CC2)ccc1CNC[C@H](O)c1ccc(O)c2[nH]c(=O)ccc12` : what is its pIC50 with Human β2 adrenoceptor (Homo sapiens)?
Reply | 8.52 to 9.52

Ask | Record `COc1cc(C(=O)NCc2ccc(-c3cccc([C@](O)(C(=O)OCC4CCN(Cc5ccccc5)CC4)c4ccccc4)c3)s2)c(Cl)cc1CNC[C@H](O)c1ccc(O)c2[nH]c(=O)ccc12` : what is its pIC50 with Human β2 adrenoceptor (Homo sapiens)?
Reply | > 9.52

Ask | Record O=C(NCc1cnc(-c2ccc([C@](O)(C(=O)OCC3CCN(Cc4ccccc4)CC3)c3ccccc3)cc2)s1)c1ccc(CNC[C@H](O)c2ccc(O)c3[nH]c(=O)ccc23)cc1 [Compound 15C] : what is its pIC50 with Human β2 adrenoceptor (Homo sapiens)?
Reply | > 9.52

Reference for the values: patent US10196386B2
